Where do the numbers come from? From patent US8273769B2.

# targetSystem: CRTH2 (Homo sapiens)
# Sequence (Q9Y5Y4 1-395): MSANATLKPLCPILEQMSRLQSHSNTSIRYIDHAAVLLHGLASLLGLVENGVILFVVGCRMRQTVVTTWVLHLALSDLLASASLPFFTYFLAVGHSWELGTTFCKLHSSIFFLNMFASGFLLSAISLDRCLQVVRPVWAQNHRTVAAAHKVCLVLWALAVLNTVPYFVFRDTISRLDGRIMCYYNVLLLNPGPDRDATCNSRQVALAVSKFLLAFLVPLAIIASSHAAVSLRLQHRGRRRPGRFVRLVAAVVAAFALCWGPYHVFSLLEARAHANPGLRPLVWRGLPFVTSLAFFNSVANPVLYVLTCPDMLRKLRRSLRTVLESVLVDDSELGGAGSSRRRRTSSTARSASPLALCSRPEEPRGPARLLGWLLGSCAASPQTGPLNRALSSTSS
# assayComment: [35S]GTPγS binding assay (CHO-CRTH2 cell membranes)
# Type: biochemical
# Parameters: expressed in transfected cells; host or cells: CHO-CRTH2 cells
# reportedConditions: antagonist mode, fixed concentration of PGD2 (EC80)
pIC50: −log10 of the molar value.
measuredEndpoint: pIC50

Incoming: Name the recorded pIC50 of the molecule listed here: `CS(=O)(=O)c1ccc(F)c(C#Cc2cc(Cl)ccc2OCC(=O)O)c1`
Outgoing: 7.82

Incoming: Name the recorded pIC50 of the molecule listed here: `O=C(O)COc1ccc(Cl)cc1C#Cc1cccc(Cl)c1`
Outgoing: 6.98

Incoming: Name the recorded pIC50 of the molecule listed here: `O=C(O)COc1ccc(Cl)cc1C#Cc1ccc(CO)cc1F`
Outgoing: 6.85

Incoming: Name the recorded pIC50 of the molecule listed here: `CS(=O)(=O)c1ccc(F)c(C#Cc2cc(C#N)ccc2OCC(=O)O)c1`
Outgoing: 7.47

(I) CCCS(=O)(=O)c1ccc(C)c(C#Cc2cc(Cl)ccc2OC(C)C(=O)O)c1 (stereo not drawn)
(II) O=C(O)COc1ccc(Cl)cc1C#Cc1cccc(S(=O)(=O)CCO)c1
Incoming: Lowest pIC50? choose I or II State your choice using its label.
Outgoing: II
(II: 6.54, I: 8.15)

###

# targetSystem: CRTH2 (Homo sapiens)
# assayComment: Radioligand binding Scintillation Proximity Assay ([3H]PGD2, hCRTH2-CHO cell membranes)
# Set-up: host or cells: CHO cells
# reportedConditions: 1.5 nM [3H]PGD2, hCRTH2-CHO cell membranes, SPA
measuredEndpoint: IC50 (nM)

Incoming: Name the recorded IC50 of the molecule listed here: CCCC(Oc1ccc(Cl)cc1C#Cc1cc(S(=O)(=O)CCC)ccc1C)C(=O)O (stereo not shown)
Outgoing: 66

Incoming: Name the recorded IC50 of the molecule listed here: `COCc1ccc(F)c(C#Cc2cc(Cl)ccc2OCC(=O)O)c1`
Outgoing: 85

Incoming: Name the recorded IC50 of the molecule listed here: `O=C(O)COc1ccc(Cl)cc1C#Cc1cc(CO)ccc1F`
Outgoing: 89

Incoming: Name the recorded IC50 of the molecule listed here: `CCCS(=O)(=O)c1cccc(C#Cc2cc(-c3sc(C)nc3C)ccc2OCC(=O)O)c1`
Outgoing: 68

###

# targetSystem: CRTH2 (Homo sapiens)
# Sequence (Q9Y5Y4 1-395): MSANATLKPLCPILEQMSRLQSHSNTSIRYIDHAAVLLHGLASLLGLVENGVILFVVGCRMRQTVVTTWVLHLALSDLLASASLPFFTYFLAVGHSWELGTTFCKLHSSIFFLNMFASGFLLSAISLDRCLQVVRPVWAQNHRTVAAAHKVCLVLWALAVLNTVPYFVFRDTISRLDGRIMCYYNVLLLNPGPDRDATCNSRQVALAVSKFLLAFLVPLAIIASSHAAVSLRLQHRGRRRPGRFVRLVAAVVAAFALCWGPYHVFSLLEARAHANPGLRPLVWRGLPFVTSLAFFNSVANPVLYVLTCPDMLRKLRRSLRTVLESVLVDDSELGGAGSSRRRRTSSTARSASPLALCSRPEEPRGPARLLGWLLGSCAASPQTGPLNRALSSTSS
# assayComment: Radioligand binding Scintillation Proximity Assay ([3H]PGD2, hCRTH2-CHO cell membranes)
# Set-up: host or cells: CHO cells
# reportedConditions: 1.5 nM [3H]PGD2, hCRTH2-CHO cell membranes, SPA
measuredEndpoint: IC50 (nM)

Incoming: Name the recorded IC50 of the compound listed here: `CS(=O)(=O)c1cc(C#Cc2cc(Cl)ccc2OCC(=O)O)ccc1-c1ccccc1`
Outgoing: 6

(a) CCCS(=O)(=O)c1cccc(C#Cc2cc(Cl)ccc2OCC(=O)O)c1
(b) CCCS(=O)(=O)c1cccc(C#Cc2cc(F)ccc2OCC(=O)O)c1
Incoming: Which of the two gives a bigger number for IC50: a or b ? State your choice using its label.
Outgoing: b
(b: 79 nM, a: 10 nM)

###

# targetSystem: CRTH2 (Homo sapiens, UniProt Q9Y5Y4)
# assayComment: Radioligand binding Scintillation Proximity Assay ([3H]PGD2, hCRTH2-CHO cell membranes)
# Parameters: host or cells: CHO cells
# reportedConditions: 1.5 nM [3H]PGD2, hCRTH2-CHO cell membranes, SPA
# Method: Adherent CHO cells expressing hCRTH2 (Euroscreen, Belgium) were cultured in 225 cm^2 cell culture flasks (Corning, USA) in 30 ml of medium. […] The inhibitory activity can be investigated by a radioligand binding Scintillation Proximity Assay (SPA) (Sawyer et al., Br. J. Pharmocol 2002, 137, 1163-72). […] Non-specific binding was determined in the presence of 10 μM PGD2 (Cayman, USA). […] Binding activity was determined by using a 1450 Micro-beta scintillation counter (Wallac, UK).
measuredEndpoint: IC50 (nM)

Known results for compounds:
Incoming: Name the recorded IC50 of the compound listed here: `CC(C)S(=O)(=O)c1ccc(Cl)c(C#Cc2cc(Cl)ccc2OCC(=O)O)c1`
Outgoing: 4

Incoming: Name the recorded IC50 of the compound listed here: `CC(C)S(=O)(=O)c1cc(C#Cc2cc(Cl)ccc2OCC(=O)O)ccc1C(=O)N(C)C`
Outgoing: 75

Incoming: Name the recorded IC50 of the compound listed here: `Cc1cc(F)c(S(C)(=O)=O)cc1C#Cc1cc(Cl)ccc1OCC(=O)O`
Outgoing: 8

Incoming: Name the recorded IC50 of the compound listed here: `CCCNS(=O)(=O)c1ccc(C)c(C#Cc2cc(Cl)ccc2OCC(=O)O)c1`
Outgoing: 4

(I) CCCS(=O)(=O)c1cccc(C#Cc2cc(-c3ccccc3)ccc2OCC(=O)O)c1
(II) CCCS(=O)(=O)c1cccc(C#Cc2nc(C)ccc2OCC(=O)O)c1
Incoming: Lowest IC50? choose I or II State your choice using its label.
Outgoing: I
(I: 24 nM, II: 193 nM)

###

# targetSystem: CRTH2 (Homo sapiens, UniProt Q9Y5Y4)
# assayComment: [35S]GTPγS binding assay (CHO-CRTH2 cell membranes)
# Format: biochemical
# Parameters: expressed in transfected cells; host or cells: CHO-CRTH2 cells
# reportedConditions: antagonist mode, fixed concentration of PGD2 (EC80)
pIC50: −log10 of the molar value.
measuredEndpoint: pIC50

Incoming: Under CRTH2 (Homo sapiens, UniProt Q9Y5Y4): report pIC50 of CS(=O)(=O)c1cc(C#Cc2cc(Cl)ccc2OCC(=O)O)ccc1-c1ccccc1 [Example 140] .
Outgoing: 7.43

Incoming: Under CRTH2 (Homo sapiens, UniProt Q9Y5Y4): report pIC50 of O=C(O)COc1ccc(Cl)cc1C#Cc1ccccc1Cl [Example 4] .
Outgoing: 7.43

Incoming: Under CRTH2 (Homo sapiens, UniProt Q9Y5Y4): report pIC50 of CCCc1ccc(S(C)(=O)=O)cc1C#Cc1cc(C#N)ccc1OCC(=O)O [Example 56] .
Outgoing: 7.31

###

# targetSystem: CRTH2 (Homo sapiens, UniProt Q9Y5Y4)
# assayComment: Radioligand binding Scintillation Proximity Assay ([3H]PGD2, hCRTH2-CHO cell membranes)
# Design: host or cells: CHO cells
# reportedConditions: 1.5 nM [3H]PGD2, hCRTH2-CHO cell membranes, SPA
pIC50: −log10 of the molar value.
measuredEndpoint: pIC50

Known results for compounds:
Incoming: Name the recorded pIC50 of the compound listed here: `Cc1ccc(S(=O)(=O)N2CCC2)cc1C#Cc1cc(Cl)ccc1OCC(=O)O`
Outgoing: 8.30

Incoming: Name the recorded pIC50 of the compound listed here: `COc1cccc(-c2ccc(C#Cc3cc(Cl)ccc3OCC(=O)O)cc2S(C)(=O)=O)c1`
Outgoing: 8.05

Incoming: Name the recorded pIC50 of the compound listed here: `CC(C)c1ccc(S(C)(=O)=O)cc1C#Cc1cc(Cl)ccc1OCC(=O)O`
Outgoing: 8.15

(P) CCCc1ccncc1C#Cc1cc(Cl)ccc1OCC(=O)O
(Q) O=C(O)COc1ccc(Cl)cc1C#Cc1ccccc1F
Incoming: Lowest pIC50? choose P or Q State your choice using its label.
Outgoing: Q
